Tested on: Liver
Assay: Intrinsic clearance in mouse liver microsomes assessed per mg protein up to 60 mins by LC-MS/MS analysis
Type: ADME, microsome
Details: 1 h
quantity: intrinsic clearance (mL/min/g)

Qu. Give the measured intrinsic clearance of Cc1cccc2c3c(ccc12)-c1occ(CN(C)C)c1C(=O)C3=O .
Ans. 51.6

(P) CCN(CC)CCCn1c2c(c3ccccc3c1=O)C(=O)C(=O)c1cc(C)oc1-2
(Q) Cc1cccc2c3c(ccc12)C1=C(C(=O)C3=O)C(O)C(C)(C)O1 (centres undefined)
Qu. Consider P and Q . Which of these has its intrinsic clearance at a higher number? Answer format: the label of the selected item.
Ans. Q
(Q: 83.1 mL/min/g, P: 38.5 mL/min/g)
